# assay-text: recombinant barcode read abundance after kanamycin selection (control-corrected) (log10(CPM+1)); higher = more efficient recombination; sequences stand for … in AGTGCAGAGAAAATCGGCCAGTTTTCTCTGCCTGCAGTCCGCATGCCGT…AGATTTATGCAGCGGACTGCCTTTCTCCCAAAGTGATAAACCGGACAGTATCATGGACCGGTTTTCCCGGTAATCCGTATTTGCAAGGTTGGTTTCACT; site = the 11-nt target;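 further: IS621 recombinase and bridge RNA in Escherichia coli cells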
readout: recombinant barcode read abundance (log10)
Lab note: jot the number down without any unit.

A selection of reference data follows.
Task: Return recombinant barcode read abundance (log10) for the following sequence: GACACTTCTTGGGTTCTAACCTGTTGCCT (site GTCAATTCTAG)
Output: 0.0949

Task: Return recombinant barcode read abundance (log10) for the following sequence: GCATCGGCTTGGGTTCTAACCTGTTGCCT (site GCATCGGCTAG)
Output: 1.22

Task: Return recombinant barcode read abundance (log10) for the following sequence: AGGAGTCCTTGGGTTCTAACCTGTTGCTG (site AGGAATCCTAA)
Output: 1.57

Task: Return recombinant barcode read abundance (log10) for the following sequence: AGTCCGTCTTGGGTTCTAACCTGTTGCAT (site CTAATAGCTTG)
Output: 0.0391

Task: Return recombinant barcode read abundance (log10) for the following sequence: GTCTCTACTTGGGTTCTAACCTGTTGCCG (site GTCGCTACTCG)
Output: 0.117

Task: Return recombinant barcode read abundance (log10) for the following sequence: ACCTTAGCTTGGGTTCTAACCTGTTGCGG (site ACCCTAACTCC)
Output: 0.263

Task: Return recombinant barcode read abundance (log10) for the following sequence: TACGCCTCTTGGGTTCTAACCTGTTGCTA (site TGCGCCTCTCA)
Output: 0.299

Task: Return recombinant barcode read abundance (log10) for the following sequence: TCATGAACTTGGGTTCTAACCTGTTGCCT (site TTATGATCTAG)
Output: 0.0186

Further cases:
Task: Return recombinant barcode read abundance (log10) for the following sequence: AGTCCACCTTGGGTTCTAACCTGTTGCCT (site CGTCCACCTAG)
Output: 0.166

Task: Return recombinant barcode read abundance (log10) for the following sequence: GAGCGAGCTTGGGTTCTAACCTGTTGCTA (site GAGCGAGCTTA)
Output: 1.31

Task: Return recombinant barcode read abundance (log10) for the following sequence: TTGAATGCTTGGGTTCTAACCTGTTGCCT (site TTGACTGCTAG)
Output: 0.0516

Task: Return recombinant barcode read abundance (log10) for the following sequence: GAAATTCCTTGGGTTCTAACCTGTTGCCT (site GAAAGTCCTAG)
Output: 0.132

Task: Return recombinant barcode read abundance (log10) for the following sequence: ATTCAAACTTGGGTTCTAACCTGTTGCCT (site ATTCAAACTAG)
Output: 0.788

Task: Return recombinant barcode read abundance (log10) for the following sequence: ACGAGTCCTTGGGTTCTAACCTGTTGCTT (site ACGAATCCTAA)
Output: 0.365

Task: Return recombinant barcode read abundance (log10) for the following sequence: TCTGGGCCTTGGGTTCTAACCTGTTGCTA (site TCTGGGCCTAA)
Output: 0.42

Task: Return recombinant barcode read abundance (log10) for the following sequence: CGGGCCTCTTGGGTTCTAACCTGTTGCTG (site CGGGCCTCTTA)
Output: 0.872

Task: Return recombinant barcode read abundance (log10) for the following sequence: AATGTACCTTGGGTTCTAACCTGTTGCCT (site CATGTACCTAG)
Output: 0.45

Task: Return recombinant barcode read abundance (log10) for the following sequence: CGTATGACTTGGGTTCTAACCTGTTGCCT (site TGTATGACTAG)
Output: 0.05

Task: Return recombinant barcode read abundance (log10) for the following sequence: AAGCCGCCTTGGGTTCTAACCTGTTGCTT (site AAGCCGCCTAA)
Output: 0.906

Value source: the supplement of paper PMC11208160
